Protocol description: MM1S myeloma cell viability, profiling panel, resazurin fluorescence, basal, 24 h, PK04 Diversity Set (AID 1174);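 further: MM1S multiple myeloma cell line; test concentration not given here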
Condition label: higher = more signal, called active from +8 up or from −8 down
Measured property: z-score
Provide a numeric answer; units are not to be included.

Recorded z-score (compound [N-]=[N+]=NCc1ccccc1C[C@]1(C(=O)NCC(O)CO)N=C(c2ccc(OCCCO)cc2)O[C@H]1c1ccccc1 (stereo partly drawn) ): -0.525

For `O=C1O[C@@H](c2ccccc2)[C@@H](c2ccccc2)N2[C@@H](c3ccccc3OCCO)[C@]3(C(=O)Nc4ccc(C#CC5=CCCCC5)cc43)[C@@H](C(=O)Nc3nc4ccccc4s3)[C@H]12` the compound record lists z-score as -0.785

The recorded z-score for `COCCOC(=O)N1C(=O)[C@@]2(c3cc(C#Cc4ccc(OC)cc4)ccc31)[C@H](C(=O)N1CCCCCCC1)[C@H]1C(=O)O[C@H](c3ccccc3)[C@H](c3ccccc3)N1[C@@H]2c1ccc(OCCO)cc1` is 1.15
